The following molecules are shown together with reported IC50 values.
tested on: CAL-62; assay: cells; assay type: functional, cell-based; conditions: Homo sapiens;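 also: growth inhibition of CAL-62 cells, read out with a cell viability assay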
Description: SANGER: Inhibition of human CAL-62 cell growth in a cell viability assay.
ASSAY_READOUT: IC50 (µM)

ENTRY_SMILES	ASSAY_READOUT	SIGN_QUALIFIER	OBSERVED
CCCS(=O)(=O)Nc1ccc(F)c(C(=O)c2c[nH]c3ncc(Cl)cc23)c1F	IC50	>	10
CC(C)=CC[C@@H](O)C1=CC(=O)c2c(O)ccc(O)c2C1=O	IC50	=	1.28
C/C=C(/C)C(=O)O[C@H]1C(C)=C2[C@H]([C@@H]1OC(=O)CCCCCCC)[C@@](C)(OC(C)=O)C[C@H](OC(=O)CCC)[C@@]1(O)[C@H]2OC(=O)[C@@]1(C)O	IC50	=	0.0716
C[C@]1(c2nc3c(C(N)=O)cccc3[nH]2)CCCN1	IC50	>	5
NC(=O)c1ncn([C@@H]2O[C@H](COP(=O)(O)O)[C@@H](O)[C@H]2O)c1N	IC50	>	2000

* * *

test system: COLO-800; assay: cells; format: functional, cell-based; conditions: Homo sapiens
Description: SANGER: Inhibition of human COLO-800 cell growth in a cell viability assay.
The following compounds are shown together with reported IC50 values.

COMPOUND	TEST_TARGET	IC50
CC[C@]1(O)C[C@@H]2CN(CCc3c([nH]c4ccccc34)[C@@](C(=O)OC)(c3cc4c(cc3OC)N(C)[C@H]3[C@@](O)(C(=O)OC)[C@H](OC(C)=O)[C@]5(CC)C=CCN6CC[C@]43[C@@H]65)C2)C1 [VINBLASTINE]	COLO-800	3.34 nM
C/C=C(/C)C(=O)O[C@H]1C(C)=C2[C@H]([C@@H]1OC(=O)CCCCCCC)[C@@](C)(OC(C)=O)C[C@H](OC(=O)CCC)[C@@]1(O)[C@H]2OC(=O)[C@@]1(C)O [THAPSIGARGIN]	COLO-800	51.3 nM
COc1cc(C)c(Sc2cnc(NC(=O)c3ccc(CNC(C)C(C)(C)C)cc3)s2)cc1C(=O)N1CCN(C(C)=O)CC1 (centres undefined)	COLO-800	> 10200 nM
Cc1ccc(NC(=O)c2cccc(C(C)(C)C#N)c2)cc1Nc1ccc2ncn(C)c(=O)c2c1	COLO-800	> 4000 nM
C[C@]12O[C@H](C[C@]1(O)CO)n1c3ccccc3c3c4c(c5c6ccccc6n2c5c31)CNC4=O [LESTAURTINIB]	COLO-800	190 nM
C/C(O)=C(\C#N)C(=O)Nc1cc(Br)ccc1Br	COLO-800	> 16000 nM
O=c1cc(N2CCOCC2)oc2c(-c3cccc4c3sc3ccccc34)cccc12	COLO-800	> 2000 nM
C[C@]1(c2nc3c(C(N)=O)cccc3[nH]2)CCCN1 [VELIPARIB]	COLO-800	> 5000 nM
CC[C@@]1(O)C(=O)OCc2c1cc1n(c2=O)Cc2cc3ccccc3nc2-1 [CAMPTOTHECIN]	COLO-800	0.428 nM

* * *

tested on: COR-L279; experiment: SANGER: Inhibition of human COR-L279 cell growth in a cell viability assay.; assay type: functional, cell-based
The following compounds are shown together with reported IC50 values.

COMPOUND	TEST_TARGET	IC50
CCn1c(-c2nonc2N)nc2cnc(Oc3cccc(NC(=O)c4ccc(OCCN5CCOCC5)cc4)c3)cc21 [GSK-269962A]	COR-L279	2070 nM
N#C/C(=C1/Nc2ccccc2S1)c1ccnc(NCCc2cccnc2)n1	COR-L279	> 8000 nM
Cc1[nH]c(/C=C2\C(=O)Nc3ccc(S(=O)(=O)Cc4c(Cl)cccc4Cl)cc32)c(C)c1C(=O)N1CCC[C@@H]1CN1CCCC1	COR-L279	> 2000 nM
CO[C@@]12[C@H](COC(N)=O)C3=C(C(=O)C(C)=C(N)C3=O)N1C[C@@H]1N[C@@H]12	COR-L279	< 62.5 nM
COc1cc(C)c(Sc2cnc(NC(=O)c3ccc(CNC(C)C(C)(C)C)cc3)s2)cc1C(=O)N1CCN(C(C)=O)CC1 (configuration not stated)	COR-L279	> 10200 nM
C/C=C(/C)C(=O)O[C@H]1C(C)=C2[C@H]([C@@H]1OC(=O)CCCCCCC)[C@@](C)(OC(C)=O)C[C@H](OC(=O)CCC)[C@@]1(O)[C@H]2OC(=O)[C@@]1(C)O	COR-L279	36.3 nM
Cc1ccc(NC(=O)c2cccc(C(C)(C)C#N)c2)cc1Nc1ccc2ncn(C)c(=O)c2c1	COR-L279	> 4000 nM
